Measured self-cleavage accompanies every entry in the list below.
B1: CPEB3 Ribozyme (parent)
chain: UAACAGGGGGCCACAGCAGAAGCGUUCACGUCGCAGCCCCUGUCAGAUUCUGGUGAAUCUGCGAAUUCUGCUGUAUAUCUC

Variants of: B1
Assay: self-cleavage, relative activity (ratio to wild type); higher = more cleavage; in vitro, sequencing

Known self-cleavage results, listed for orientation:
* G24U A47G | 0.31
* G8C U67G | 0.15
* A45C U72A | 0.38
* G8U G19C | 0.23
* U25C G46U | 0.2

input: Request the reported self-cleavage associated with A5G G16A
output: 0.57

input: Request the reported self-cleavage associated with U69C U72G
output: 0.35

input: Request the reported self-cleavage associated with C32U U66C
output: 0.22
